Values compiled from ChEMBL document CHEMBL1157539.

test system: Plasmodium falciparum; experiment: GSK_TCMDC: Inhibition of Plasmodium falciparum Dd2 in whole red blood cells, using parasite LDH activity as an index of growth. Test compounds present at 2uM; type: functional

compound: CN(C)CCN(C)Cc1cccc(-c2cccc(NC(=O)c3cccc(C#N)c3)c2)c1.O=C(O)C(F)(F)F
system.name: Plasmodium falciparum
Inhibition: 10%
--
compound: COC(=O)c1ccc(Nc2nccc(Nc3ccc(Oc4ccccc4)cc3)n2)cc1.Cl
system.name: Plasmodium falciparum
Inhibition: 15%
--
compound: O=C(Nc1ccc(F)cc1F)NC1CCN(CCCCCNC(=O)C2CC2c2ccc(Cl)c(Cl)c2)CC1 (stereo not given)
system.name: Plasmodium falciparum
Inhibition: 32%
--
compound: O=C(c1ccco1)c1cn(CCOc2ccccc2)c2ccccc12
system.name: Plasmodium falciparum
Inhibition: 10%
--
compound: CCCc1cc(C(=O)N[C@@H](Cc2ccccc2)[C@H](O)CNC(C)C)c(F)c(N2CCCC2=O)c1
system.name: Plasmodium falciparum
Inhibition: 22%

---

system: HepG2; experiment: GSK_TCMDC: Percent inhibition of human HepG2 cell line. Test compounds present at 10uM.; format: functional
readout.type: Inhibition (%)

compound: CNCCNCc1cccc(-c2ccc(-c3nc4cc(C(F)(F)F)ccc4[nH]3)cc2)c1.O=C(O)C(F)(F)F
system.name: HepG2
endpoint.value: 21
//
compound: O=C(O)C(F)(F)F.c1cc(CNCCc2ccncc2)cc(-c2ccc(-c3nc4ccccc4[nH]3)cc2)c1
system.name: HepG2
endpoint.value: 28
//
compound: CS(=O)(=O)Nc1ccc2[nH]cc(C3CCN(CC4CCC(NC(=O)/C=C/c5ccc(Cl)c(Cl)c5)CC4)CC3)c2n1 (centres undefined)
system.name: HepG2
endpoint.value: 2
//
compound: Nc1c2c(nc3ccc(C(=O)Nc4ccc(Br)cc4)cc13)CCCC2
system.name: HepG2
endpoint.value: 40
//
compound: Cc1cc(N2CCCCC2)nc2ccc(NC(=O)c3cncc(Br)c3)cc12
system.name: HepG2
endpoint.value: 0
//
compound: CCCCN(CCCC)Cc1cc2ccccc2cc1O.Cl
system.name: HepG2
endpoint.value: 9
//
compound: CC1CN(Cc2cccc(F)c2)CCN1c1ccc(NC(=O)c2cccs2)cc1.O=C(O)C(F)(F)F (centres undefined)
system.name: HepG2
endpoint.value: 0
//
compound: Br.Cc1cc(C)c(C)c(OCCCON2C(=N)N=C(N)NC2(C)C)c1C
system.name: HepG2
endpoint.value: 64
//
compound: CC(C)NCc1cccc(-c2ccc(NS(=O)(=O)c3cccc4cccnc34)cc2)c1.O=C(O)C(F)(F)F
system.name: HepG2
endpoint.value: 21

---

test system: HepG2; assay: GSK_TCMDC: Percent inhibition of human HepG2 cell line. Test compounds present at 10uM.; format: functional
If the reported Inhibition equals or exceeds 20%, assign met. If not, assign not met.

molecule: C=CCn1c(Sc2ccc(C#N)c([N+](=O)[O-])c2)nnc1-c1ccc(Cl)cc1
system.name: HepG2
class: not met

molecule: O=c1c(NCCCN(Cc2ccc(F)cc2)c2ccccn2)c(NCc2ccncc2)c1=O
system.name: HepG2
class: met

molecule: CNc1ccc(CNCc2cccc(-c3ccc(-c4nc5cccc(C)c5[nH]4)s3)c2)cc1.O=C(O)C(F)(F)F
system.name: HepG2
class: met

molecule: Cl.O=C(Nc1ccccc1Br)N[C@@H]1CCN(c2ccnc3ccccc23)C1
system.name: HepG2
class: met

molecule: Cc1ccccc1C1CCN(C2CCC(NC(=O)/C=C/c3cc(F)ccc3C(F)(F)F)CC2)CC1 (centres undefined)
system.name: HepG2
class: met

molecule: COc1ccc(NC(=O)c2ccc3cc4ccccc4cc3c2)cc1N1CCN(C)CC1
system.name: HepG2
class: met

molecule: COc1cccc(O)c1CN1CCC2(CCCN(Cc3ccc(F)cc3)C2)C1 (centres undefined)
system.name: HepG2
class: met

molecule: Cc1cc(C2CCN(CCCCNC(=O)c3ccc(-c4ccc(C(F)(F)F)cc4)cc3)CC2)c(C)cc1OCC(N)=O
system.name: HepG2
class: met

molecule: CCOc1ccc(-c2nonc2NC(=O)c2ccc(OC)cc2)cc1OCC
system.name: HepG2
class: not met

molecule: Fc1cccc(COc2ccc(Nc3ncnc4sc(C#CC5CCCCN5)cc34)cc2Cl)c1.O=C(O)C(F)(F)F (centres undefined)
system.name: HepG2
class: met

molecule: Cn1nc(-c2ccc(NC(=O)Nc3cc(C(F)(F)F)ccc3F)cc2)c2cnc(NCCCCN3CCCC3)nc21.O=C(O)C(F)(F)F
system.name: HepG2
class: met

molecule: CC1(C)N=C(N)N=C(Nc2ccc(Cl)cc2)N1.Cl
system.name: HepG2
class: not met

molecule: CC(CCCCC(=O)Nc1ccc(C(F)(F)F)cc1)NCC(O)c1cccc(Cl)c1 (centres undefined)
system.name: HepG2
class: met

molecule: O=C(Nc1ccc(-c2nc3ccccc3[nH]2)cc1)c1ccc(S(=O)(=O)N2CCCCC2)cc1
system.name: HepG2
class: met

molecule: CN(C(=O)/C=C/c1cc(C(F)(F)F)ccc1F)C1CCN(CCCCCNC(=O)/C=C/c2ccc(Cl)c(Cl)c2)C1 (centres undefined)
system.name: HepG2
class: not met

molecule: CCOC(=O)c1cncc(/C=C/c2cc(C)cnc2N)c1
system.name: HepG2
class: not met

molecule: CN(C)CCNc1ncnc2c1[nH]c1ccc(Br)cc12
system.name: HepG2
class: not met

molecule: Cc1cc(NC(=O)NCCN2CCC(NC(=O)c3cccc(Br)c3)C2)c2ccccc2n1.O=C(O)C(F)(F)F (centres undefined)
system.name: HepG2
class: not met

molecule: O=C(Nc1cccc(CN2CCCN(Cc3ccsc3)CC2)c1)c1ccc(-c2ccccc2)cc1.O=C(O)C(F)(F)F
system.name: HepG2
class: met
